Kindly supply the reported inhibition at 1 µM values for the records listed here.
EXPERIMENTAL_SYSTEM: human CCR5 (Homo sapiens, UniProt P51681)
Construct: expressed in transfected cells
Sequence (P51681 whole entry): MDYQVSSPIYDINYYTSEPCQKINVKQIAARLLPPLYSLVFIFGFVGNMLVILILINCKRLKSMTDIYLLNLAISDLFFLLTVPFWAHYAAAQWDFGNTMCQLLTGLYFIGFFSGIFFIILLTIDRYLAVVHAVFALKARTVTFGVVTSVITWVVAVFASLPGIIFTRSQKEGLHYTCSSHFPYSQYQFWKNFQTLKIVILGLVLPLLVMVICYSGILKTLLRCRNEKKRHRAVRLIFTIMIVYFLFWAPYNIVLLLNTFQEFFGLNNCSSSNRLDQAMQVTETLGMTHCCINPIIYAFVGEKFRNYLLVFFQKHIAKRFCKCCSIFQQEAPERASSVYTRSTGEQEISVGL
ASSAY_SUMMARY: CCR5-binding inhibition: [125I]-RANTES binding to CHO/CCR5 cells
COND: test compound 1 μM; ligand [125I]-RANTES 100 pM; CHO/CCR5 strains; room temperature, 30 minutes
Only the number, expressed in %, is required.

Observed inhibition at 1 µM on human CCR5 (Homo sapiens, UniProt P51681) for CCCOc1ccc(CCCOc2ccc3c(c2)C=C(C(=O)Nc2ccc(CN(C)C4CCOCC4)cc2)CCS3(=O)=O)cc1 , please.
82

Which inhibition at 1 µM is reported with human CCR5 (Homo sapiens, UniProt P51681) for this entry: Cc1ccc(-c2ccc3c(c2)C=C(C(=O)NC2CCN(C4CCOCC4)CC2)CCO3)cc1 ?
74

Could you share what inhibition at 1 µM was measured for CCCOc1ccccc1COc1ccc2c(c1)C=C(C(=O)Nc1ccc(CN(C)C3CCOCC3)cc1)CCS2(=O)=O , tested on human CCR5 (Homo sapiens, UniProt P51681)?
98

What is its inhibition at 1 µM for human CCR5 (Homo sapiens, UniProt P51681)? Entry: CCCOCCOc1ccc(COc2ccc3c(c2)C=C(C(=O)Nc2ccc(CN(C)C4CCOCC4)cc2)CCS3(=O)=O)cc1
86

* * *

OBSERVED_PROPERTY: melting point

Quick check: melting point of Cc1ccc(-c2ccc3c(c2)C=C(C(=O)NC2CCNCC2)CCO3)cc1 [Compound 54] ?
183 to 185 °C

# get_value(readout='melting point', item= Cc1ccc(-c2ccc3c(c2)C=C(C(=O)NC2CCN(CC4=CCCCCCC4)CC2)CCO3)cc1 [Compound 57] )
148 to 151 °C

Find the recorded melting point belonging to CCCOc1cccc(CCOc2ccc3c(c2)C=C(C(=O)Nc2ccc(CN(C)C4CCOCC4)cc2)CCS3(=O)=O)c1 [Compound 105] and report it.
153 to 154 °C

Look up melting point: CCCOc1ccc(Oc2ccc3c(c2)C=C(C(=O)Nc2ccc(CN(C)C4CCOCC4)cc2)CCS3(=O)=O)cc1 [Compound 111]
139 to 141 °C

Which melting point value is on record for Cc1ccc(-c2ccc3c(c2)C=C(C(=O)N[C@H]2CC[C@H](CN(C)C4CCOCC4)CC2)CO3)cc1 [Compound 67] ?
141 to 143 °C

Entry Cc1ccc(-c2ccc3c(c2)C=C(C(=O)Nc2ccc(C4=NCCN4)cc2)CCO3)cc1 [Compound 92] : reported melting point = ?
282 to 283 °C

Data request, read-out melting point, for C[N+]1(Cc2ccc(NC(=O)c3cccc(OCc4ccccc4)c3)cc2)CCCCC1.[I-] [Compound 87]
192 to 194 °C

Return reported melting point; argument: Cc1ccc(-c2ccc3c(c2)CN(C(=O)Nc2ccc(C[N+]4(C)CCCCC4)cc2)CC3)cc1.[Cl-]
179 to 180 °C (dec.)

Consider the compound shown here: Cc1ccc(-c2coc(/C=C/C(=O)N[C@H]3CC[C@H](CN(C)C4CCOCC4)CC3)c2)cc1 [Compound 74] What is its recorded melting point?
165 to 167 °C

Can you share its melting point? I mean this compound: CCCc1ccc(Oc2ccc3c(c2)C=C(C(=O)Nc2ccc(CN(C)C4CCOCC4)cc2)CCS3(=O)=O)cc1 [Compound 113]
147 to 149 °C

Fill in: melting point of O=C(Nc1ccc(CN2CCCCC2)cc1)c1cccc(OCc2cccc3ccccc23)c1 [Compound 86] is ___
171 to 173 °C

Entry under review: CCCOc1cccc(Oc2ccc3c(c2)C=C(C(=O)Nc2ccc(CN(C)C4CCOCC4)cc2)CCS3(=O)=O)c1 [Compound 112] . Reported melting point?
143 to 144 °C

Field request: melting point | item: CCOCCOc1c(C)cc(Oc2ccc3c(c2)C=C(C(=O)Nc2ccc(CN(C)C4CCOCC4)cc2)CCS3(=O)=O)cc1C [Compound 126]
111 to 113 °C

# lookup: melting point of CCCOc1ccccc1COc1ccc2c(c1)C=C(C(=O)Nc1ccc(CN(C)C3CCOCC3)cc1)CCS2(=O)=O [Compound 21]
190 to 192 °C

Which melting point reading was recorded for the compound Cc1ccc(-c2ccc3c(c2)C=C(C(=O)NC2CCN(C)CC2)CCO3)cc1 [Compound 61] ?
180 to 182 °C

Fill blank: measured melting point of the compound CCOc1ccc(COc2ccc3c(c2)C=C(C(=O)Nc2ccc(CN(C)C4CCOCC4)cc2)CCS3(=O)=O)cc1OCC [Compound 122] is ____.
186 to 188 °C

Bench note: what melting point did Cc1ccc(-c2ccc3c(c2)C=C(C(=O)N[C@H]2CC[C@H](CN(C)C4CCOCC4)CC2)CCC3)cc1 [Compound 64] show?
163 to 165 °C

Form field: reported melting point of CCCOc1ccc(CCCOc2ccc3c(c2)C=C(C(=O)Nc2ccc(CN(C)C4CCOCC4)cc2)CCS3(=O)=O)cc1 [Compound 121]
178 to 181 °C

Entry under review: Cc1ccc(-c2ccc3c(c2)C=C(C(=O)NC2CCN(Cc4ccccc4)CC2)CCO3)cc1 [Compound 58] . Reported melting point?
161 to 162 °C (dec.)

For the compound Cc1ccc(COc2cccc(C(=O)Nc3ccc(CN4CCCCC4)cc3)c2)cc1 [Compound 85] , what melting point is on record?
153 to 155 °C

I have this compound here, Cc1ccc(-c2ccc3c(c2)C=C(C(=O)N2CCC(N)CC2)CCO3)cc1 [Compound 76] , and I need its recorded melting point.
123 to 127 °C

So what does the record say about melting point for COC(=O)N1CCN=C1Cc1ccc(NC(=O)C2=Cc3cc(-c4ccc(C)cc4)ccc3OCC2)cc1 [Compound 96] ?
170 to 171 °C

melting point lookup needed for Cc1ccc(COc2cccc(C(=O)Nc3ccc(C[N+]4(C)CCCCC4)cc3)c2)cc1.[I-] [Compound 88] , thanks.
210 to 212 °C

What does the data say about its melting point? Entry: CCCOCCOc1ccc(COc2ccc3c(c2)C=C(C(=O)Nc2ccc(CN(C)C4CCOCC4)cc2)CCS3(=O)=O)cc1OCC [Compound 110]
146 to 147 °C

For the compound CCCOc1ccccc1CCCOc1ccc2c(c1)C=C(C(=O)Nc1ccc(CN(C)C3CCOCC3)cc1)CCS2(=O)=O [Compound 119] , what melting point is on record?
184 to 186 °C

Quick one: melting point for Cc1ccc(-c2ccc3c(c2)C=C(C(=O)NC2CCN(CC4CCCCC4)CC2)CCO3)cc1 [Compound 55] ?
180 to 181 °C
